# TEST: Cytotoxicity against human HCT-8 cells assessed as reduction in cell viability by neutral red uptake assay
# Type: toxicity, cell-based
CC50 listing for selected molecules.

| MOLECULE | CC50 |
| --- | --- |
| CC(C)C[C@H](NC(=O)OC1CCC(F)(F)CC1)C(=O)N[C@@H](C[C@@H]1CCNC1=O)C(O)S(=O)(=O)O (some centres not stated) | > 100 µM |

Shifting focus to the molecule that follows.
Query: Which CC50 is reported for this molecule? CC(C)C[C@H](NC(=O)OCC1CCC(F)(F)CC1)C(=O)N[C@@H](C[C@@H]1CCNC1=O)C(O)S(=O)(=O)O (some centres not stated)
Reply: > 100 µM

* * *

pKi listing for selected molecules.
# STUDY TARGET: Replicase polyprotein 1ab (Severe acute respiratory syndrome coronavirus 2, UniProt P0DTD1)
Recall that pKi is obtained by taking minus log10 of the concentration measured in molar.

| COMPOUND STRUCTURE STRING | pKi |
| --- | --- |
| O=c1c2ccccc2[se]n1Cc1ccco1 | 7.51 |

Shifting focus to the molecule that follows.
Query: Which pKi is reported for this molecule? `O=c1c2ccccc2sn1Cc1ccco1`
Reply: 7.11

* * *

CC50 listing for selected compounds.
# TEST: Cytotoxicity against human A549 cells assessed as reduction in cell viability by neutral red uptake assay
# Format: toxicity, cell-based
Peptide text beside a SMILES is read from it.

| COMPOUND | RECORDED ENDPOINT | ENDPOINT RESULT |
| --- | --- | --- |
| CCC[C@H](NC(=O)[C@H](CC(C)C)NC(=O)OCc1ccccc1)C(=O)C(=O)NCc1ccccn1 | CC50 | > 100 µM |

Shifting focus to the compound that follows.
Query: Which CC50 is reported for this compound? CSCC[C@@H](C=O)NC(=O)[C@H](CC(C)C)NC(=O)[C@H](CC(C)C)NC(C)=O (Ac-Leu-Leu-Met-aldehyde)
Reply: > 100 µM

* * *

# TEST: Cytotoxicity against African green monkey Vero E6 cells assessed as reduction of cell viability by CellTiterGlo assay
# Assay type: toxicity, cell-based, Vero C1008
# REPORTED CONDITIONS: chlorocebus sabaeus
RECORDED ENDPOINT: CC50

| COMPOUND | RECORDED ENDPOINT | ENDPOINT RESULT |
| --- | --- | --- |
| O=c1cc(-c2ccccc2)oc2cc(O)c(O)c(O)c12 | CC50 | > 200 µM |
| CC(C)C[C@H](NC(=O)OCc1ccccc1)C(=O)N[C@@H](C[C@@H]1CCNC1=O)C(O)S(=O)(=O)O (some centres undefined) | CC50 | > 200 µM |
| O=C[C@H](C[C@@H]1CCNC1=O)NC(=O)[C@H](Cc1cccc(F)c1)NC(=O)c1cc2ccccc2[nH]1 | CC50 | > 100 µM |

Shifting focus to the compound that follows.
Query: Which CC50 is reported for this compound? `O=C[C@H](C[C@@H]1CCNC1=O)NC(=O)[C@H](CC1CCCCC1)NC(=O)c1cc2ccccc2[nH]1`
Reply: > 100 µM

* * *

# TEST: Binding affinity to SARS CoV Main protease incubated for 10 mins by FRET assay
# Parameters: species or system Severe acute respiratory syndrome-related coronavirus
RECORDED ENDPOINT: pKi
Recall that pKi is obtained by taking minus log10 of the concentration measured in molar.

Query: Which pKi is reported for this molecule? `CC(C)C[C@H](NC(=O)/C=C\c1ccccc1)C(=O)N[C@H](C=O)C[C@@H]1CCCNC1=O`
Reply: 7.28

Query: Which pKi is reported for this molecule? `C[C@@H](OC(C)(C)C)[C@H](NC(=O)OCc1ccccc1)C(=O)N[C@@H](CC1CCCCC1)C(=O)N[C@H](C=O)C[C@@H]1CCNC1=O`
Reply: 7.28
